# System: ATP;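 further: ATP exposure 15 min at 22 °C before imaging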
# Run description: switch fluorescence ratio, 500 uM ATP over buffer (Cy3 cluster intensity, sum of 5 cycles each) (fold (ratio)); higher = stronger signal-on switching upon ATP binding; sequences stand for … in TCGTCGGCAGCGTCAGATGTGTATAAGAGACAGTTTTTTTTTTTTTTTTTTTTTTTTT…TC
# Test context: aptamer strand: ATP DNA aptamer (quencher-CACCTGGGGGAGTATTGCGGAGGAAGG + anchor), 100 nM annealed; ATP concentration: 500 uM
Experimental endpoint: switch fluorescence ratio

>  <Sequence chain>
TTAAGGAGGA

>  <Experimental endpoint>
switch fluorescence ratio

>  <Reported>
0.981

$$$$
>  <Sequence chain>
CTTGTTGAGG

>  <Experimental endpoint>
switch fluorescence ratio

>  <Reported>
0.988

$$$$
>  <Sequence chain>
TTAGACGGGA

>  <Experimental endpoint>
switch fluorescence ratio

>  <Reported>
1.03

$$$$
>  <Sequence chain>
CCTGAGTTCG

>  <Experimental endpoint>
switch fluorescence ratio

>  <Reported>
1.39

$$$$
>  <Sequence chain>
CGAGGGGTTG

>  <Experimental endpoint>
switch fluorescence ratio

>  <Reported>
1

$$$$
>  <Sequence chain>
CGGTCTTCAT

>  <Experimental endpoint>
switch fluorescence ratio

>  <Reported>
0.99

$$$$
>  <Sequence chain>
TATAAAAGTC

>  <Experimental endpoint>
switch fluorescence ratio

>  <Reported>
0.992

$$$$
>  <Sequence chain>
TCTAAGGGA

>  <Experimental endpoint>
switch fluorescence ratio

>  <Reported>
1.01

$$$$
>  <Sequence chain>
CTTAGTGGCG

>  <Experimental endpoint>
switch fluorescence ratio

>  <Reported>
0.976

$$$$
>  <Sequence chain>
TTAATCTTTT

>  <Experimental endpoint>
switch fluorescence ratio

>  <Reported>
1.06

$$$$
>  <Sequence chain>
CGATGTGCGG

>  <Experimental endpoint>
switch fluorescence ratio

>  <Reported>
1.03

$$$$
>  <Sequence chain>
GGGATGCAGA

>  <Experimental endpoint>
switch fluorescence ratio

>  <Reported>
1.05

$$$$
>  <Sequence chain>
AATTTGAGAA

>  <Experimental endpoint>
switch fluorescence ratio

>  <Reported>
0.998

$$$$
>  <Sequence chain>
ATTGGCGTGG

>  <Experimental endpoint>
switch fluorescence ratio

>  <Reported>
1.01

$$$$
>  <Sequence chain>
TTCAAGCGTT

>  <Experimental endpoint>
switch fluorescence ratio

>  <Reported>
0.982

$$$$
>  <Sequence chain>
TGGAATTGTG

>  <Experimental endpoint>
switch fluorescence ratio

>  <Reported>
1.05

$$$$
>  <Sequence chain>
GGGTTAGGAA

>  <Experimental endpoint>
switch fluorescence ratio

>  <Reported>
0.991

$$$$
>  <Sequence chain>
AACCGAACGA

>  <Experimental endpoint>
switch fluorescence ratio

>  <Reported>
2.09

$$$$
>  <Sequence chain>
GGGATCTCGG

>  <Experimental endpoint>
switch fluorescence ratio

>  <Reported>
1.05

$$$$
>  <Sequence chain>
AGAGAATGG

>  <Experimental endpoint>
switch fluorescence ratio

>  <Reported>
0.951

$$$$
>  <Sequence chain>
TACCATTAGT

>  <Experimental endpoint>
switch fluorescence ratio

>  <Reported>
1.04

$$$$
>  <Sequence chain>
TTAGGATAT

>  <Experimental endpoint>
switch fluorescence ratio

>  <Reported>
1.02

$$$$
>  <Sequence chain>
TTTAGGTTGA

>  <Experimental endpoint>
switch fluorescence ratio

>  <Reported>
0.996

$$$$
>  <Sequence chain>
GCTGTGCGGG

>  <Experimental endpoint>
switch fluorescence ratio

>  <Reported>
0.95

$$$$
>  <Sequence chain>
CATTTGAAGA

>  <Experimental endpoint>
switch fluorescence ratio

>  <Reported>
1.01

$$$$
>  <Sequence chain>
AAATGGGTTG

>  <Experimental endpoint>
switch fluorescence ratio

>  <Reported>
1

$$$$
>  <Sequence chain>
GGGAAAGGTG

>  <Experimental endpoint>
switch fluorescence ratio

>  <Reported>
1.54

$$$$
>  <Sequence chain>
TGGTGCATTT

>  <Experimental endpoint>
switch fluorescence ratio

>  <Reported>
1.06

$$$$
>  <Sequence chain>
AATTTGGTCC

>  <Experimental endpoint>
switch fluorescence ratio

>  <Reported>
1.04

$$$$
>  <Sequence chain>
AGGATCTATG

>  <Experimental endpoint>
switch fluorescence ratio

>  <Reported>
1.03

$$$$
>  <Sequence chain>
ACGTTATGTT

>  <Experimental endpoint>
switch fluorescence ratio

>  <Reported>
1.1

$$$$
>  <Sequence chain>
GGAGCACGTG

>  <Experimental endpoint>
switch fluorescence ratio

>  <Reported>
1.12

$$$$
>  <Sequence chain>
TTAACTAGAT

>  <Experimental endpoint>
switch fluorescence ratio

>  <Reported>
1.02

$$$$
>  <Sequence chain>
AGAATGAGGG

>  <Experimental endpoint>
switch fluorescence ratio

>  <Reported>
0.991

$$$$
>  <Sequence chain>
GGTCTTGGGC

>  <Experimental endpoint>
switch fluorescence ratio

>  <Reported>
1.02

$$$$
>  <Sequence chain>
GCCTATGCAA

>  <Experimental endpoint>
switch fluorescence ratio

>  <Reported>
1.48

$$$$
>  <Sequence chain>
TCTGGTGAAA

>  <Experimental endpoint>
switch fluorescence ratio

>  <Reported>
1.02

$$$$
>  <Sequence chain>
ACCATATGGA

>  <Experimental endpoint>
switch fluorescence ratio

>  <Reported>
1.02

$$$$
>  <Sequence chain>
TGAGAAGTCA

>  <Experimental endpoint>
switch fluorescence ratio

>  <Reported>
0.978

$$$$
>  <Sequence chain>
GTTGTGTTGT

>  <Experimental endpoint>
switch fluorescence ratio

>  <Reported>
0.979

$$$$
>  <Sequence chain>
ATATTAATTT

>  <Experimental endpoint>
switch fluorescence ratio

>  <Reported>
0.989

$$$$
>  <Sequence chain>
CGAGTATTAC

>  <Experimental endpoint>
switch fluorescence ratio

>  <Reported>
1.09

$$$$
>  <Sequence chain>
GTAATTTTTT

>  <Experimental endpoint>
switch fluorescence ratio

>  <Reported>
1.02

$$$$
